tgt: UniProtKB P26684
Sequence (P26684 whole entry): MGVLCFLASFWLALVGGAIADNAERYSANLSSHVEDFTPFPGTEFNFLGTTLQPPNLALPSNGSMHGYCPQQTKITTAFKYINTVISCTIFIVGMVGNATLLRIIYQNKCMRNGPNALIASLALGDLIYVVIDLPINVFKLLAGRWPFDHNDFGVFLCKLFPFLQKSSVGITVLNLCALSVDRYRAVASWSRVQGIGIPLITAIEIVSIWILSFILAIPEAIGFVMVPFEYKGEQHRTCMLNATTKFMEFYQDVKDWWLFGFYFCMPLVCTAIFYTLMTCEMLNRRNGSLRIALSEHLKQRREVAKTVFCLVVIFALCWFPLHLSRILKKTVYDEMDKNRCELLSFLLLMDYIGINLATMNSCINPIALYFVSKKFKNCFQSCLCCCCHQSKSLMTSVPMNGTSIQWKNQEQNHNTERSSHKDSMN
method: Endothelin pressor effect in rats after oral dose of 30 uM/kg
Assay type: functional
Listed here are molecules together with their documented Activity.
propertyMeasured: Activity

{"molecule": "Cc1noc(NS(=O)(=O)c2ccccc2-c2ccc(-c3ncco3)cc2)c1C", "value": "9700 AUC units"}
{"molecule": "CCCCC1=NC2(CCCC2)C(=O)N1Cc1ccc(-c2ccccc2S(=O)(=O)Nc2onc(C)c2C)c(CN2CCC(C)(C)C2=O)c1", "value": "7900 AUC units"}
{"molecule": "CCCCC1=NC2(CCCC2)C(=O)N1Cc1ccc(-c2ccccc2S(=O)(=O)Nc2noc(C)c2C)c(CCC)c1", "value": "13000 AUC units"}
{"molecule": "CCCCC1=NC2(CCCC2)C(=O)N1Cc1ccc(-c2ccccc2S(=O)(=O)Nc2onc(C)c2C)c(COCC)c1", "value": "3900 AUC units"}
{"molecule": "CCCCC1=NC2(CCCC2)C(=O)N1Cc1ccc(-c2ccccc2S(=O)(=O)Nc2noc(C)c2C)c(COCC)c1", "value": "15800 AUC units"}
{"molecule": "CCCCC1=NC2(CCCC2)C(=O)N1Cc1ccc(-c2ccccc2S(=O)(=O)Nc2onc(C)c2C)c(CCC)c1", "value": "8600 AUC units"}

* * *

tgt: Angiotensin II receptor (AT-1) type-1 (Rattus norvegicus) (UniProt P29089+P25095)
method: Angiotensin II pressor effect in rats after oral dose of 30 uM/kg
Format: functional
Listed here are compounds together with their documented Activity.
propertyMeasured: Activity

{"molecule": "CCCCC1=NC2(CCCC2)C(=O)N1Cc1ccc(-c2ccccc2S(=O)(=O)Nc2onc(C)c2C)c(CCC)c1", "value": "15900 AUC units"}
{"molecule": "CCCCC1=NC2(CCCC2)C(=O)N1Cc1ccc(-c2ccccc2S(=O)(=O)Nc2noc(C)c2C)c(COCC)c1", "value": "18600 AUC units"}
{"molecule": "CCCCC1=NC2(CCCC2)C(=O)N1Cc1ccc(-c2ccccc2S(=O)(=O)Nc2onc(C)c2C)c(COCC)c1", "value": "13900 AUC units"}
{"molecule": "CCCCC1=NC2(CCCC2)C(=O)N1Cc1ccc(-c2ccccc2-c2nnn[nH]2)cc1", "value": "13500 AUC units"}
{"molecule": "CCCCC1=NC2(CCCC2)C(=O)N1Cc1ccc(-c2ccccc2S(=O)(=O)Nc2noc(C)c2C)c(CCC)c1", "value": "16300 AUC units"}
{"molecule": "CCCCC1=NC2(CCCC2)C(=O)N1Cc1ccc(-c2ccccc2S(=O)(=O)Nc2onc(C)c2C)c(CN2CCC(C)(C)C2=O)c1", "value": "5800 AUC units"}
